# target.desc: T1, recombinant human CD33 protein (Sino Biologicals) (human, UniProt P20138 18-259)
# T1 construct: Bought protein; also called recombinant CD33
# assay.notes: ELISA, plate coated with recombinant CD33
pEC50: −log10 of the molar value.

binder	pEC50
anti-CD33 antibody 6C7H32 (antibody, V domains shown, VH/VL only) VH: EVQLVESGGGLVQPGGSLRLSCAASGSTFSEYDMLWVRQAPGKGLEWVGEIRLKSNNYVTNYAASVKGRFTISRDDSKNSVYLQMNSLKTEDTGVYYCTRAGYYVPFAYWGQGTLVTVSS VL: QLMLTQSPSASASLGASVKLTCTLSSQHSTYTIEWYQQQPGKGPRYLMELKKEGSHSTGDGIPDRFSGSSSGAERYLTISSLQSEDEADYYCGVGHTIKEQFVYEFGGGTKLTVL	9.70
anti-CD33 antibody 6C7H38 (antibody, V domains shown, VH/VL only) VH: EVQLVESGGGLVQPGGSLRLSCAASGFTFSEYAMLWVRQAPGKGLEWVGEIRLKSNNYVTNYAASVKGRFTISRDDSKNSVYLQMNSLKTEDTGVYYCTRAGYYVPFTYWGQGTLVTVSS VL: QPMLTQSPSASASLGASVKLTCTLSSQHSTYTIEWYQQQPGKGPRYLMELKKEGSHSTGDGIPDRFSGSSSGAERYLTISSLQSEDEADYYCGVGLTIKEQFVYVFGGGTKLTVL	9.68
anti-CD33 antibody 6C7H54 (antibody, IgG1, V domains shown, VH/VL only; also called 6C7H54 IgG1; 6C754) VH: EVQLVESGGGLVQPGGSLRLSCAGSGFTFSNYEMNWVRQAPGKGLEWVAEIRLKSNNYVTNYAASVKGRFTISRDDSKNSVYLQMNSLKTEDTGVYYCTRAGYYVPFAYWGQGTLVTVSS VL: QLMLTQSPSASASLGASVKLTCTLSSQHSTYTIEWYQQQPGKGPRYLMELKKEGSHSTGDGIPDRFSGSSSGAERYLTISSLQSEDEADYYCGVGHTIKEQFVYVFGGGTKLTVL	9.55
